The reported measurements were obtained from patent US4696928A.

test system: Bacteroides melanogenicus NCTC 9336; experiment: MIC vs. panel of anaerobes; format: cell-based; details: NCTC9336; Bacteroides melanogenicus NCTC 9336; read-out: MIC
Listing of entries alongside the reported MIC.

// below: answered compounds
[
  {
    "compound": "[O-][N+]1=C(c2ccccc2)C2=NCCN2c2cc(N3CCN(c4ccccc4)CC3)c(F)cc21",
    "MIC": "> 100 µg/mL"
  },
  {
    "compound": "[O-][N+]1=C(c2ccccc2)C2=NCCN2c2cc(N3CCN(c4ccccc4)CC3)ccc21",
    "MIC": "> 100 µg/mL"
  }
]

# ---- query compound ----
Please report MIC for the following compound: Cc1ncc([N+](=O)[O-])n1CCO [Metronidazole, reference compound]
> 100 µg/mL
